Each record here notes measured solubility (g/100 g solution).
assay: xn = mol fraction of the nth substance listed, in the solute-free solvent; details: 298.15 K; x2 = 0.06974
Please reply with the number alone, leaving off any unit.

Some solved entries appear below for comparison.
molecule="Cc1ccc2cc(Br)ccc2n1 + CC(C)O + O" property_label="solubility (g/100 g solution)" result_value=0.241
molecule="Nc1cccc2ccncc12 + CC(C)O + O" property_label="solubility (g/100 g solution)" result_value=0.244
molecule="CN1CCC(N(Cc2cccs2)c2ccccc2)CC1 + CC(C)O + O" property_label="solubility (g/100 g solution)" result_value=0.428
molecule="Nc1cccc2ccncc12 + CCCO + O" property_label="solubility (g/100 g solution)" result_value=0.297

# evaluate next
Per the record, CN1CCC(N(Cc2cccs2)c2ccccc2)CC1 + CCCO + O has solubility (g/100 g solution) of 0.533
